I'd be grateful if you could share measured Plasma Stability 240 min hum [% remain.] for these entries.
protocol: Plasma stability assay, human plasma
Assay type: in vitro ADME
assayContext: human plasma, 240 min, 10 μM, 37° C.
Procedure: 5. Plasma and Metabolic Stability Assays Example compounds were dissolved in DMSO/H2O 90:10 to a final concentration of 10 mM for plasma stability determination and metabolic stability determination. […] The filtrate (100 μL) is evaporated and reconstituted in the suitable solvent (cf. Table 33) to be analyzed by HPLC/MS/MS. […]
Answers are plain numbers, in % remain..

Worked cases, answers included:
COc1ccc2c(c1)-c1cccc(c1)C(=O)N(C)[C@H](C(=O)NC1CC1)CCC(=O)N[C@H](C)CO2 :: 99
COc1ccc2c(c1)-c1cccc(c1)C(=O)N(C)[C@H](C(=O)N[C@@H](C)c1ccccc1)CCC(=O)N[C@H](C)CO2 :: 95

Required: Plasma Stability 240 min hum [% remain.], one value per molecule below.
1. C[C@H]1COc2cccc(c2)-c2cccc(c2)C(=O)N(C)[C@H](C(=O)NCCCN2CCCC2)CCC(=O)N1
2. C[C@H]1COc2cccc(c2)-c2cccc(c2)C(=O)N(C)[C@H](C(=O)O)CCC(=O)N1
3. COc1ccc2c(c1)-c1cccc(c1)C(=O)N(C)[C@H](C(=O)NCC(C)C)CCC(=O)N[C@H](C)CO2

1. 100
2. 91
3. 100

Required: Plasma Stability 240 min hum [% remain.], one value per molecule below.
1. C[C@H]1COc2cccc(c2)-c2cccc(c2)C(=O)N(C)[C@H](C(=O)NCc2cccnc2)CCC(=O)N1
2. C[C@H]1COc2cccc(c2)-c2cccc(c2)C(=O)N(C)[C@H](C(=O)N2CCOCC2)CCC(=O)N1

93
100

* * *

protocol: Metabolic stability assay, human liver microsomes
Type: in vitro ADME
assayContext: both sexes, liver microsomes; human microsomes, 10 μM, 1 mg/ml protein, 37° C.; read-out: Metabolic Stability T ½ [min] hum
quantity: half-life at 10 μM

COc1ccc2c(c1)-c1cccc(c1)C(=O)N(C)[C@H](C(=O)N[C@@H](C)c1ccccc1)CCC(=O)N[C@H](C)CO2 :: > 60 min
COc1ccc2c(c1)-c1cccc(c1)C(=O)N(C)[C@H](C(=O)Nc1ccccc1)CCC(=O)N[C@H](C)CO2 :: > 60 min
C[C@H]1COc2cccc(c2)-c2cccc(c2)C(=O)N(C)[C@H](C(=O)NCCO)CCC(=O)N1 :: > 60 min

Required: half-life at 10 μM, one value per compound below.
1. COc1ccc2c(c1)-c1cccc(c1)C(=O)N(C)[C@H](C(=O)NCc1cccnc1)CCC(=O)N[C@H](C)CO2
2. COc1ccc2c(c1)-c1cccc(c1)C(=O)N(C)[C@H](C(=O)NCC(=O)O)CCC(=O)N[C@H](C)CO2
3. C[C@H]1COc2cccc(c2)-c2cccc(c2)C(=O)N(C)[C@H](C(=O)NCC(=O)O)CCC(=O)N1
4. C[C@H]1COc2cccc(c2)-c2cccc(c2)C(=O)N(C)[C@H](C(=O)NCCCN2CCCC2)CCC(=O)N1
5. COc1ccc2c(c1)-c1cccc(c1)C(=O)N(C)[C@H](C(=O)N1CCCC1)CCC(=O)N[C@H](C)CO2
6. COc1ccc2c(c1)-c1cccc(c1)C(=O)N(C)[C@H](C(=O)NCCCN)CCC(=O)N[C@H](C)CO2
7. COc1ccc2c(c1)-c1cccc(c1)C(=O)N(C)[C@H](C(=O)NCCN(C)C)CCC(=O)N[C@H](C)CO2
8. COc1ccc2c(c1)-c1cccc(c1)C(=O)N(C)[C@H](C(=O)NCCO)CCC(=O)N[C@H](C)CO2

["> 60 min", "> 60 min", "> 60 min", "> 60 min", "32 min", "> 60 min", "> 60 min", "> 60 min"]

Required: half-life at 10 μM, one value per compound below.
1. C[C@H]1COc2cccc(c2)-c2cccc(c2)C(=O)N(C)[C@H](C(=O)O)CCC(=O)N1
2. COc1ccc2c(c1)-c1cccc(c1)C(=O)N(C)[C@H](C(=O)NCC(F)(F)F)CCC(=O)N[C@H](C)CO2
3. C[C@H]1COc2cccc(c2)-c2cccc(c2)C(=O)N(C)[C@H](C(=O)NCC(F)(F)F)CCC(=O)N1
4. CNC(=O)[C@@H]1CCC(=O)N[C@H](C)COc2ccc(OC)cc2-c2cccc(c2)C(=O)N1C

1. > 60 min
2. > 60 min
3. > 60 min
4. > 60 min
